Cited source for all entries: patent US20230135894A1

Entries and their Dmax values follow.
TARGET SYSTEM: MK2 (Homo sapiens, UniProt P49137)
Sequence (P49137 whole entry): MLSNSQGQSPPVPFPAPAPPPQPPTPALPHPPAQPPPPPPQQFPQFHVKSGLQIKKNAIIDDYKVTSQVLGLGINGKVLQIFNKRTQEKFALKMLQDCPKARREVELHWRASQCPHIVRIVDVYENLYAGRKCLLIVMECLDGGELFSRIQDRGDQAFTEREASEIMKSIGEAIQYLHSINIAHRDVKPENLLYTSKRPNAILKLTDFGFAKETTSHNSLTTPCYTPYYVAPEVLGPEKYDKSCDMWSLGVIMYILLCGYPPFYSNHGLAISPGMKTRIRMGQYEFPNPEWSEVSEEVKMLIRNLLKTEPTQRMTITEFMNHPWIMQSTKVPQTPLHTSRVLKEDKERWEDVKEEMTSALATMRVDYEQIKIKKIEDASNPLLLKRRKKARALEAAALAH
TEST METHOD NOTES: MK2 degradation in human SW1353 cells (MSD, 24 h)
Format: cell-based
Parameters: endogenous in cells; host or cells: SW-1353 (ATCC HTB-94)
MEASUREMENT CONTEXT: read-out: MK2 MSD SW 1353 24 h Dmax %

# COMPOUND, Dmax
measured = [
    ("C[C@@H]1CNc2c(sc3ccc4nc(-c5ccc(N6CCN(CCCCOc7ccc(C8CCC(=O)NC8=O)cc7)CC6)nc5)ccc4c23)C(=O)N1 (stereo partly drawn)", "> 75%"),
    ("Cn1c(=O)n(C2CCC(=O)NC2=O)c2cccc(CCCCCN3CCN(c4ccc(F)c(-c5cc(-c6cc7c([nH]6)CCNC7=O)ccn5)c4)CC3)c21 (stereo not drawn)", "< 50%"),
    ("C[C@@H]1CNc2c(sc3ccc4nc(-c5cccc(N6CCC(CN7CCN(c8ccc9c(c8)CN(C8CCC(=O)NC8=O)C9=O)CC7)CC6)c5)ccc4c23)C(=O)N1 (stereo partly drawn)", "> 75%"),
    ("C[C@@H]1CNc2c(sc3ccc4nc(-c5cccc(N6CCN(C(=O)COCCOCCc7cccc8c7n(C)c(=O)n8C7CCC(=O)N(C)C7=O)CC6)c5)ccc4c23)C(=O)N1 (stereo partly drawn)", "< 50%"),
    ("C[C@@H]1CNc2c(sc3ccc4nc(-c5ccc(N6CCN(CC7CCN(c8ccc(N9CCC(=O)NC9=O)cc8)CC7)CC6)nc5)ccc4c23)C(=O)N1", "> 75%"),
    ("Cn1c(=O)n(C2CCC(=O)NC2=O)c2cccc(CCCN3CCN(c4ccc(-c5cc(-c6cc7c([nH]6)C6(CC6)CNC7=O)ccn5)cc4)CC3)c21 (stereo not drawn)", "> 75%"),
    ("C[C@@H]1CNc2c(sc3ccc4nc(-c5ccc(N6CCN(C7CC(c8cccc9c8n(C)c(=O)n9C8CCC(=O)NC8=O)C7)CC6)cc5)ccc4c23)C(=O)N1 (stereo partly drawn)", "> 75%"),
    ("COc1cccc(-c2cc(N3CCN(CC4CCN(c5ccc6c(c5)n(C)c(=O)n6C5CCC(=O)NC5=O)CC4)CC3)cc(-n3cc(-c4ccc5c(c4)CCNC5=O)c(N)n3)c2)c1 (stereo not drawn)", "< 50%"),
    ("C[C@@H]1CNc2c(sc3ccc4nc(-c5ccc(N6CCC(CN7CCN(c8ccc9c(c8)CN(C8CCC(=O)NC8=O)C9=O)CC7)CC6)cc5)ccc4c23)C(=O)N1 (stereo partly drawn)", "> 75%"),
    ("Cn1c(=O)n(C2CCC(=O)NC2=O)c2ccc(N3CCC(CN4CCN(c5ccc(-c6cc(-c7cc8c([nH]7)C7(CC7)CNC8=O)ccn6)c(F)c5)CC4)CC3)cc21 (stereo not drawn)", "> 75%"),
    ("C[C@@H]1CNc2c(sc3ccc4nc(-c5ccc(N6CCN(C[C@H]7C[C@@H](c8ccc9c(c8)n(C)c(=O)n9C8CCC(=O)NC8=O)C7)CC6)cc5)ccc4c23)C(=O)N1 (stereo partly drawn)", "> 75%"),
    ("C[C@@H]1CNc2c(sc3ccc4nc(-c5ccc(C#CCCNC(=O)CCCCCCCc6ccc7c(c6)n(C)c(=O)n7C6CCC(=O)NC6=O)cc5)ccc4c23)C(=O)N1 (stereo partly drawn)", "> 75%"),
    ("Cn1c(=O)n(C2CCC(=O)NC2=O)c2ccc(N3CCC(CN4CCN(c5ccc(-c6cc(-c7cc8c([nH]7)CCNC8=O)ccn6)c(F)c5)CC4)CC3)cc21 (stereo not drawn)", "> 75%"),
    ("C[C@@H]1CNc2c(sc3ccc4nc(-c5ccc(N6CCN(CCCc7ccc8c(c7)n(C)c(=O)n8C7CCC(=O)NC7=O)CC6)cc5Cl)ccc4c23)C(=O)N1 (stereo partly drawn)", "50 to 75%"),
    ("Cc1cc(N2CCN(CC3CN(c4ccc5c(c4)n(C)c(=O)n5C4CCC(=O)NC4=O)C3)CC2)ccc1-c1ccc2c(ccc3sc4c(c32)NC[C@@H](C)NC4=O)n1 (stereo partly drawn)", "> 75%"),
    ("C[C@@H]1CNc2c(sc3ccc4nc(N5CCCN(CC6CCN(c7cccc8c7n(C)c(=O)n8C7CCC(=O)NC7=O)CC6)CC5)ccc4c23)C(=O)N1 (stereo partly drawn)", "< 50%"),
    ("C[C@@H]1CNc2c(sc3ccc4nc(-c5ccc([C@H]6CC[C@H](CN7CCN(c8ccc9c(c8)n(C)c(=O)n9C8CCC(=O)NC8=O)CC7)CC6)nc5)ccc4c23)C(=O)N1 (stereo partly drawn)", "> 75%"),
    ("C[C@@H]1Cc2oc(-c3ccnc(-c4ccc(N5CCN(CC6CCN(c7ccc8c(c7)n(C)c(=O)n8C7CCC(=O)NC7=O)CC6)CC5)nc4)c3)cc2C(=O)N1 (stereo partly drawn)", "< 50%"),
    ("C[C@@H]1CNc2c(sc3ccc4nc(-c5ccc(N6CCN(CCOc7ccc8c(c7)n(C)c(=O)n8C7CCC(=O)NC7=O)CC6)cc5)ccc4c23)C(=O)N1 (stereo partly drawn)", "> 75%"),
    ("C[C@@H]1CNc2c(sc3ccc4nc(-c5ccc(CNC(=O)CCCCCCCc6ccc7c(c6)n(C)c(=O)n7C6CCC(=O)NC6=O)cc5)ccc4c23)C(=O)N1 (stereo partly drawn)", "> 75%"),
    ("C[C@@H]1CNc2c(sc3ccc4nc(-c5ccc(N6CCN(CCCc7ccc8c(c7)n(C)c(=O)n8C7CCC(=O)NC7=O)CC6)nc5)ccc4c23)C(=O)N1 (stereo partly drawn)", "> 75%"),
]

* * *

Entries and their DC50 values follow.
TARGET SYSTEM: UniProt P49137
TEST METHOD NOTES: MK2 degradation in human SW1353 cells (MSD, 24 h)
Format: cell-based
Set-up: endogenous in cells; host or cells: SW-1353 (ATCC HTB-94)
MEASUREMENT CONTEXT: read-out: MK2 MSD SW1353 degradation 24 h GMean External Abs DC50
Experimental: MK2 Degradation in Human SW1353 Cells […] After 3 more washes, the secondary detection antibody (SULFO-Tag anti rabbit antibody R32AB-5) was added at a final concentration of 1 microgram per ml at 25 microlitres per well and shaken at room temperature for 1 hour at 600 rpm. After 3 more washes, the 1×MSD (diluted from 5× concentrate with water) reading buffer was added at 150 microlitres per well and read on the MSD instrument Meso Sector S 600. […]

# COMPOUND, TARGET SYSTEM, DC50
rows = [
    ("C[C@@H]1CNc2c(sc3ccc4nc(-c5ccc(N6CCN(CC7CN(c8cccc9c8n(C)c(=O)n9C8CCC(=O)NC8=O)C7)CC6)nc5)ccc4c23)C(=O)N1 (some centres unmarked)", "UniProt P49137", "< 1 nM"),
    ("Cc1cc(-c2ccc3c(ccc4sc5c(c43)NC[C@@H](C)NC5=O)n2)cnc1N1CCN(CC2CCN(c3ccc4c(c3)n(C)c(=O)n4C3CCC(=O)NC3=O)CC2)CC1 (some centres unmarked)", "UniProt P49137", "< 1 nM"),
    ("C[C@@H]1CNc2c(sc3ccc4nc(N5CCC6(CCN(CC7CCN(c8ccc9c(c8)n(C)c(=O)n9C8CCC(=O)NC8=O)CC7)CC6)CC5)ccc4c23)C(=O)N1 (some centres unmarked)", "UniProt P49137", "> 100 nM"),
    ("C[C@@H]1CNc2c(sc3ccc4nc(-c5cccc(N6CCC7(CC6)CN(CCCCCCc6cccc8c6n(C)c(=O)n8C6CCC(=O)NC6=O)C7)c5)ccc4c23)C(=O)N1 (some centres unmarked)", "UniProt P49137", "10 to 100 nM"),
    ("C[C@@H]1CNc2c(sc3ccc4nc(-c5cccc(C6CCN(CCN7CCC(CCc8cccc9c8n(C)c(=O)n9C8CCC(=O)NC8=O)CC7)CC6)c5)ccc4c23)C(=O)N1 (some centres unmarked) [Compound I-296]", "UniProt P49137", "10 to 100 nM"),
]

* * *

TARGET SYSTEM: MK2 (Homo sapiens, UniProt P49137)
TEST METHOD NOTES: MK2 degradation in human SW1353 cells (MSD, 24 h)
Format: cell-based
Set-up: endogenous in cells; host or cells: SW-1353 (ATCC HTB-94)
MEASUREMENT CONTEXT: read-out: MK2 MSD SW1353 degradation 24 h GMean External Abs DC50
Entries and their DC50 values follow.

# MOLECULE, DC50
records = [
    ("C[C@@H]1CN(C)c2c(sc3ccc4nc(-c5ccc(N6CCC(CN7CCN(c8ccc9c(c8)n(C)c(=O)n9C8CCC(=O)NC8=O)CC7)CC6)cc5)ccc4c23)C(=O)N1 (some centres unmarked)", "1 to 10 nM"),
    ("COc1cc(-c2ccc3c(ccc4sc5c(c43)NC[C@@H](C)NC5=O)n2)c(C)cc1N1CCN(CC2CCN(c3ccc4c(c3)n(C)c(=O)n4C3CCC(=O)NC3=O)CC2)CC1 (some centres unmarked)", "< 1 nM"),
    ("C[C@@H]1CNc2c(sc3ccc4nc(-c5cccc(N6CCN(C(=O)COCCOCCOCCOCCc7ccc8c(c7)n(C)c(=O)n8C7CCC(=O)NC7=O)CC6)c5)ccc4c23)C(=O)N1 (some centres unmarked)", "1 to 10 nM"),
    ("C[C@@H]1CNc2c(sc3ccc4nc(-c5cccc(N6CCN(CC7CCN(c8ccc9c(c8)CN(C8CCC(=O)NC8=O)C9=O)CC7)CC6)c5)ccc4c23)C(=O)N1 (some centres unmarked)", "1 to 10 nM"),
    ("C[C@@H]1CNc2c(sc3ccc4nc(N5CCN(C6CC7(CCN(c8cccc9c8n(C)c(=O)n9C8CCC(=O)NC8=O)CC7)C6)CC5)ccc4c23)C(=O)N1 (some centres unmarked)", "< 1 nM"),
]
